Heads up, these molecules all have AC50 values measured for Equilibrative nucleoside transporter 1 (Homo sapiens).

These recorded examples may help you get a feel for the data.
molecule	AC50
CO/N=C(\C(=O)N[C@@H]1C(=O)N2C(C(=O)O)=CCS[C@H]12)c1csc(N)n1	> 30 µM
Cc1cc(C)nc(NS(=O)(=O)c2ccc(N)cc2)n1	> 10 µM
CCCCCCCN(CC)CCCC(O)c1ccc(NS(C)(=O)=O)cc1 (centres undefined) [IBUTILIDE]	> 30 µM
CC(c1cc2ccccc2s1)N(O)C(N)=O (centres undefined)	> 10 µM
CC(C)c1cccc(C(C)C)c1O	> 30 µM

Problem: Write AC50 of `O=C1Cc2cc(CCN3CCN(c4nsc5ccccc45)CC3)c(Cl)cc2N1` ; system used: Equilibrative nucleoside transporter 1 (Homo sapiens); note: assay procedure not described here
Sequence (Q99808 whole entry): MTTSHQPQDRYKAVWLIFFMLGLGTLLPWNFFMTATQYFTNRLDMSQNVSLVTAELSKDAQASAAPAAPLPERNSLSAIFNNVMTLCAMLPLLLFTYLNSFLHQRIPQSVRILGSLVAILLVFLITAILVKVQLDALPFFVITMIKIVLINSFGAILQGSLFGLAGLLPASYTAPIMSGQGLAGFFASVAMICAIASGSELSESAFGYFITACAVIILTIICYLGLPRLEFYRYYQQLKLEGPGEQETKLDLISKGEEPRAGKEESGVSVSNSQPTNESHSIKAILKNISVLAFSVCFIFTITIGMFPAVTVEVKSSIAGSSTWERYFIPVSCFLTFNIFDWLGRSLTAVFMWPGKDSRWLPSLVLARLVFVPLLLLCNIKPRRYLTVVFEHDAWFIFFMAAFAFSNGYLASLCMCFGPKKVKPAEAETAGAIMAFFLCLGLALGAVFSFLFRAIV
Solution: > 30 µM

Problem: Write AC50 of COc1cc(C(=O)NC2CCCNC2)cc(OC)c1OC (centres undefined) [TROXIPIDE] ; system used: Equilibrative nucleoside transporter 1 (Homo sapiens); note: assay procedure not described here
Solution: > 30 µM

Problem: Write AC50 of `O=c1c(O)c(-c2ccc(O)c(O)c2)oc2cc(O)cc(O)c12` ; system used: Equilibrative nucleoside transporter 1 (Homo sapiens); note: assay procedure not described here
Solution: > 30 µM

Problem: Write AC50 of `COc1cc(C)c(/C=C/C(C)=C/C=C/C(C)=C/C(=O)O)c(C)c1C` ; system used: Equilibrative nucleoside transporter 1 (Homo sapiens); note: assay procedure not described here
Solution: > 10 µM

Problem: Write AC50 of `COc1ccc2cc(CCC(C)=O)ccc2c1` ; system used: Equilibrative nucleoside transporter 1 (Homo sapiens); note: assay procedure not described here
Solution: > 30 µM

Problem: Write AC50 of `CNCCc1ccc(OC(=O)C(C)C)c(OC(=O)C(C)C)c1` ; system used: Equilibrative nucleoside transporter 1 (Homo sapiens); note: assay procedure not described here
Solution: > 30 µM

Problem: Write AC50 of `CO/N=C(\C(=O)N[C@@H]1C(=O)N2C(C(=O)O)=C(CSc3nc(=O)c(=O)[nH]n3C)CS[C@H]12)c1csc(N)n1` ; system used: Equilibrative nucleoside transporter 1 (Homo sapiens); note: assay procedure not described here
Solution: > 30 µM

Problem: Write AC50 of `O=S1(=O)CCN(CN2CCS(=O)(=O)NC2)CN1` ; system used: Equilibrative nucleoside transporter 1 (Homo sapiens); note: assay procedure not described here
Solution: > 30 µM

Problem: Write AC50 of `Cc1nc(Nc2ncc(C(=O)Nc3c(C)cccc3Cl)s2)cc(N2CCN(CCO)CC2)n1` ; system used: Equilibrative nucleoside transporter 1 (Homo sapiens); note: assay procedure not described here
Solution: > 30 µM

Problem: Write AC50 of `CC(C)Cc1ccc([C@H](C)C(=O)O)cc1` ; system used: Equilibrative nucleoside transporter 1 (Homo sapiens); note: assay procedure not described here
Solution: > 30 µM

Problem: Write AC50 of CC(C(=O)O)c1ccc2c(c1)CC(=O)c1ccccc1S2 (centres undefined) ; system used: Equilibrative nucleoside transporter 1 (Homo sapiens); note: assay procedure not described here
Solution: > 30 µM

Problem: Write AC50 of `CCOC(=O)c1ncn2c1CN(C)C(=O)c1cc(F)ccc1-2` ; system used: Equilibrative nucleoside transporter 1 (Homo sapiens); note: assay procedure not described here
Solution: > 30 µM

Problem: Write AC50 of `Oc1cc(O)c(Cl)cn1` ; system used: Equilibrative nucleoside transporter 1 (Homo sapiens); note: assay procedure not described here
Solution: > 30 µM

Problem: Write AC50 of `CCC[C@@H]1C[C@@H](C(=O)N[C@@H]([C@H]2O[C@H](SC)[C@H](O)[C@@H](O)[C@H]2O)[C@@H](C)O)N(C)C1` ; system used: Equilibrative nucleoside transporter 1 (Homo sapiens); note: assay procedure not described here
Solution: > 10 µM

====

systemName: Glutamate receptor ionotropic, NMDA 1 (Rattus norvegicus); note: assay procedure not described here
quantityKind: AC50

These recorded examples may help you get a feel for the data.
molecule	AC50
C[C@]12CCC(=O)C[C@@H]1CC[C@@H]1[C@@H]2CC[C@]2(C)[C@@H](O)CC[C@@H]12	> 30 µM
CCc1cc2c(s1)-n1c(C)nnc1CN=C2c1ccccc1Cl	> 30 µM
O=C1c2cccc3c2[C@H](CCC3)CN1[C@@H]1CN2CCC1CC2	> 30 µM

Problem: Write AC50 of CCCCCCCN(CC)CCCC(O)c1ccc(NS(C)(=O)=O)cc1 (centres undefined) [IBUTILIDE] ; system used: Glutamate receptor ionotropic, NMDA 1 (Rattus norvegicus); note: assay procedure not described here
Solution: > 30 µM

Problem: Write AC50 of `c1ccc(C2(N3CCCCC3)CCCCC2)cc1` ; system used: Glutamate receptor ionotropic, NMDA 1 (Rattus norvegicus); note: assay procedure not described here
Solution: 0.288 µM

Problem: Write AC50 of `O=C(O)Cc1ccccc1Nc1c(Cl)cccc1Cl` ; system used: Glutamate receptor ionotropic, NMDA 1 (Rattus norvegicus); note: assay procedure not described here
Solution: > 10 µM

Problem: Write AC50 of `Cc1ccc(C)c(OCCCC(C)(C)C(=O)O)c1` ; system used: Glutamate receptor ionotropic, NMDA 1 (Rattus norvegicus); note: assay procedure not described here
Solution: > 10 µM

Problem: Write AC50 of `C=C1c2cccc(O)c2C(=O)C2=C(O)[C@]3(O)C(=O)C(C(N)=O)=C(O)[C@@H](N(C)C)[C@@H]3[C@@H](O)[C@H]12` ; system used: Glutamate receptor ionotropic, NMDA 1 (Rattus norvegicus); note: assay procedure not described here
Solution: > 10 µM

Problem: Write AC50 of `O=C(NCCO[N+](=O)[O-])c1cccnc1` ; system used: Glutamate receptor ionotropic, NMDA 1 (Rattus norvegicus); note: assay procedure not described here
Solution: > 30 µM

Problem: Write AC50 of NC[C@H]1CC[C@H](C(=O)Oc2ccc(CCC(=O)O)cc2)CC1 [CETRAXATE] ; system used: Glutamate receptor ionotropic, NMDA 1 (Rattus norvegicus); note: assay procedure not described here
Solution: > 30 µM

Problem: Write AC50 of `Fc1ccc([C@@H]2CCNC[C@H]2COc2ccc3c(c2)OCO3)cc1` ; system used: Glutamate receptor ionotropic, NMDA 1 (Rattus norvegicus); note: assay procedure not described here
Solution: > 10 µM

====

List of AC50 values.
systemName: Muscarinic acetylcholine receptor M2 (Homo sapiens, UniProt P08172); note: assay procedure not described here
Sequence (P08172 whole entry): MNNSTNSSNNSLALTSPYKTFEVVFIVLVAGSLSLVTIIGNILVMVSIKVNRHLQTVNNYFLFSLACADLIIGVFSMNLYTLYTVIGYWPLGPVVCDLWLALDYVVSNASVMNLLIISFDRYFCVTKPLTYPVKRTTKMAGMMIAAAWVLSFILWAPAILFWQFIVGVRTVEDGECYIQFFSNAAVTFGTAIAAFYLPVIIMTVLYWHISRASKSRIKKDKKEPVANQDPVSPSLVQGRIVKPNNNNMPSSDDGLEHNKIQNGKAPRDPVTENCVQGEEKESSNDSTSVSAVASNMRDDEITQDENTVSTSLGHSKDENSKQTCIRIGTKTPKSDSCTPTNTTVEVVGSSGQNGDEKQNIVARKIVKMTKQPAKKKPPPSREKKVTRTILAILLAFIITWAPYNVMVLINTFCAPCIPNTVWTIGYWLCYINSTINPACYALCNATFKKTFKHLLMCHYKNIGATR
Assay type: functional, cell-based

These recorded examples may help you get a feel for the data.
molecule	AC50
COc1cc2[nH]c(C)c(CCN3CCN(c4ccccc4)CC3)c2cc1OC [OXYPERTINE]	> 30 µM
CC=CC1=C(C(=O)O)N2C(=O)[C@@H](NC(=O)[C@H](N)c3ccc(O)cc3)[C@H]2SC1 [CEFPROZIL]	> 30 µM
C[C@]12C=CC(=O)C=C1CC[C@@H]1[C@@H]2CC[C@]2(C)OC(=O)CC[C@@H]12 [TESTOLACTONE]	> 10 µM
CC(Cc1cccc(C(F)(F)F)c1)NCCOC(=O)c1ccccc1 (centres undefined) [BENFLUOREX]	> 30 µM
CC(C)(O/N=C(\C(=O)N[C@@H]1C(=O)N2C(C(=O)[O-])=C(C[n+]3ccccc3)CS[C@H]12)c1csc(N)n1)C(=O)O [CEFTAZIDIME]	> 300 µM
Cn1c(=O)c2c(ncn2CCOC(=O)C(C)(C)Oc2ccc(Cl)cc2)n(C)c1=O [THEOFIBRATE]	> 30 µM

Problem: Annotate the molecule O=C1c2cccc3c2[C@H](CCC3)CN1[C@@H]1CN2CCC1CC2 [PALONOSETRON] with its measured AC50.
Solution: > 30 µM

Problem: Annotate the molecule CCC1(CCC(C)C)C(=O)NC(=O)NC1=O [AMOBARBITAL] with its measured AC50.
Solution: > 10 µM

Problem: Annotate the molecule CC/C=C\C/C=C\C/C=C\C/C=C\C/C=C\CCCC(=O)OCC [ICOSAPENT ETHYL] with its measured AC50.
Solution: > 30 µM

Problem: Annotate the molecule CCc1nc(N)nc(N)c1-c1ccc(Cl)cc1 [PYRIMETHAMINE] with its measured AC50.
Solution: > 10 µM

Problem: Annotate the molecule CN[C@]1(c2ccccc2Cl)CCCCC1=O [ESKETAMINE] with its measured AC50.
Solution: > 30 µM

Problem: Annotate the molecule Cc1cccc(C)c1NC(=O)CC12CCCN1CCC2 [PILSICAINIDE] with its measured AC50.
Solution: > 30 µM

Problem: Annotate the molecule O=C(O)CCNC(=O)c1ccc(/N=N/c2ccc(O)c(C(=O)O)c2)cc1 [BALSALAZIDE] with its measured AC50.
Solution: > 30 µM

Problem: Annotate the molecule `Oc1cc(O)c(Cl)cn1` with its measured AC50.
Solution: > 30 µM

====

Heads up, these compounds all have AC50 values measured for Type-1 angiotensin II receptor (Homo sapiens).

Problem: Write AC50 of `COc1ccc2cc(CCC(C)=O)ccc2c1` ; system used: Type-1 angiotensin II receptor (Homo sapiens); note: assay procedure not described here
Sequence (P30556 whole entry): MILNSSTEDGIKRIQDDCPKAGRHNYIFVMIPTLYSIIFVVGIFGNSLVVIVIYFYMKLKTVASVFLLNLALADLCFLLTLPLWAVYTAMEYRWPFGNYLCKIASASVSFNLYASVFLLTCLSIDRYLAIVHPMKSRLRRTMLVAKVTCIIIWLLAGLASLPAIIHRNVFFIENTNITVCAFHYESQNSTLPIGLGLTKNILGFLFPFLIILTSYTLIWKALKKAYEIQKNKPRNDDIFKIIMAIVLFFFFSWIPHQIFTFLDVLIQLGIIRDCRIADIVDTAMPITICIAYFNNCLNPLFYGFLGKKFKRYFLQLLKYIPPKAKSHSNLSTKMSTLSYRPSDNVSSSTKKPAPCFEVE
Solution: > 10 µM

Problem: Write AC50 of CC(C)(C)NCC(O)c1ccccc1Cl (stereo not given) ; system used: Type-1 angiotensin II receptor (Homo sapiens); note: assay procedure not described here
Solution: > 30 µM

Problem: Write AC50 of `CO/N=C(\C(=O)N[C@@H]1C(=O)N2C(C(=O)O)=CCS[C@H]12)c1csc(N)n1` ; system used: Type-1 angiotensin II receptor (Homo sapiens); note: assay procedure not described here
Solution: > 30 µM

Problem: Write AC50 of CN(CCOc1ccc(CC2SC(=O)NC2=O)cc1)c1ccccn1 (stereo not given) ; system used: Type-1 angiotensin II receptor (Homo sapiens); note: assay procedure not described here
Solution: 18 µM

Problem: Write AC50 of `CC(C)[C@H](N)C(=O)OCCOCn1cnc2c(=O)[nH]c(N)nc21` ; system used: Type-1 angiotensin II receptor (Homo sapiens); note: assay procedure not described here
Solution: > 30 µM
